assay_summary: In vivo pharmacokinetic study, plasma UPLC-MS
Parameters: species or system C57BL/6 mice
test_parameters: male, C57BL/6, mouse, plasma, ip, 40 mg/kg, mice, 40 mg/kg intraperitoneal injection
measured_attribute: Cmax (ng/mL)

- C=C1C(OC(=O)c2ccccc2)CC2C(C=C(C)C(=O)C3(OC(C)=O)CC(C)C(OC(=O)c4ccccc4)C3C1OC(C)=O)C2(C)C (stereo not shown) [EFL2, Euphorbia factor L2]: 4530

---

assay_summary: In vivo pharmacokinetic study, plasma UPLC-MS
Design: species or system C57BL/6 mice
test_parameters: male, C57BL/6, mouse, ip; mice, 40 mg/kg intraperitoneal injection, plasma
measured_attribute: Tmax (h)

* C=C1C(OC(=O)c2ccccc2)CC2C(C=C(C)C(=O)C3(OC(C)=O)CC(C)C(OC(=O)c4ccccc4)C3C1OC(C)=O)C2(C)C (stereo not shown) | 2.5

---

assay_summary: In vivo pharmacokinetic study, plasma UPLC-MS
Parameters: species or system C57BL/6 mice
test_parameters: male, C57BL/6, mouse, ip; mice, 40 mg/kg intraperitoneal injection, plasma
measured_attribute: AUC(0-t) (µg·h/mL)

• C=C1C(OC(=O)c2ccccc2)CC2C(C=C(C)C(=O)C3(OC(C)=O)CC(C)C(OC(=O)c4ccccc4)C3C1OC(C)=O)C2(C)C (stereo not shown) = 374

---

assay_summary: In vivo pharmacokinetic study, plasma UPLC-MS
Set-up: species or system C57BL/6 mice
test_parameters: male, C57BL/6, mouse, ip; mice, 40 mg/kg intraperitoneal injection, plasma
measured_attribute: half-life (h)

* C=C1C(OC(=O)c2ccccc2)CC2C(C=C(C)C(=O)C3(OC(C)=O)CC(C)C(OC(=O)c4ccccc4)C3C1OC(C)=O)C2(C)C (stereo not shown) | 21.2

---

assay_summary: In vivo pharmacokinetic study, plasma UPLC-MS
Set-up: species or system C57BL/6 mice
test_parameters: male, C57BL/6, mouse, ip; mice, 40 mg/kg intraperitoneal injection, plasma; read-out: MRT0-∞
measured_attribute: MRT inf

• C=C1C(OC(=O)c2ccccc2)CC2C(C=C(C)C(=O)C3(OC(C)=O)CC(C)C(OC(=O)c4ccccc4)C3C1OC(C)=O)C2(C)C (stereo not shown) = 61.4 h

---

assay_summary: In vivo pharmacokinetic study, plasma UPLC-MS
Set-up: species or system C57BL/6 mice
test_parameters: male, C57BL/6, mouse, ip; mice, 40 mg/kg intraperitoneal injection, plasma; read-out: MRT0-t
measured_attribute: MRT last (h)

• C=C1C(OC(=O)c2ccccc2)CC2C(C=C(C)C(=O)C3(OC(C)=O)CC(C)C(OC(=O)c4ccccc4)C3C1OC(C)=O)C2(C)C (stereo not shown) [EFL2, Euphorbia factor L2] = 59.2

---

assay_summary: In vivo pharmacokinetic study, plasma UPLC-MS
Design: species or system C57BL/6 mice
test_parameters: male, C57BL/6, mouse, plasma, ip, 40 mg/kg, mice, 40 mg/kg i.p.
Description: Prior to the pharmacokinetic study, 12 male C57BL/6 mice were fasted for 12 h with free access to water, and then treated by intraperitoneal injection of EFL2 at a dose of 40 mg/kg. […] The pharmacokinetic parameters of EFL2 were calculated using WinNolin 4.0.1 software. 20 μL plasma samples were spiked with 340 μL acetonitrile by vortex mixing for 30 s. […] Then, the concentration of EFL2 was determined. […]
measured_attribute: Cmax (ng/mL)

- C=C1C(OC(=O)c2ccccc2)CC2C(C=C(C)C(=O)C3(OC(C)=O)CC(C)C(OC(=O)c4ccccc4)C3C1OC(C)=O)C2(C)C (stereo not shown): 4520

---

assay_summary: In vivo pharmacokinetic study, plasma UPLC-MS
Set-up: species or system C57BL/6 mice
test_parameters: male, C57BL/6, mouse, ip; mice, 40 mg/kg intraperitoneal injection, plasma
measured_attribute: AUC(0-inf) (µg·h/mL)

* C=C1C(OC(=O)c2ccccc2)CC2C(C=C(C)C(=O)C3(OC(C)=O)CC(C)C(OC(=O)c4ccccc4)C3C1OC(C)=O)C2(C)C (stereo not shown) | 379

Source: paper PMC8691750
